Value source: paper PMC3839042

TESTED ON: T1, human S100B (human, UniProt P04271 1-92)
T1 sequence (looked up): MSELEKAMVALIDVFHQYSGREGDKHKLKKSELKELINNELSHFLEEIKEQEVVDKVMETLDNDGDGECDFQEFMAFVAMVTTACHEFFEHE
ASSAY SUMMARY: other fluorescence titration
pKd: −log10 of the molar value.
TEST READOUT: pKd

BINDER: Ac-TRTKADWNKILS-NH2 [TRTKM5 (Ac-TRTKADWNKILS-NH2)]
pKd: 6.22

(I) Ac-ARTKIDWNKILS-NH2 [TRTKM1 (Ac-ARTKIDWNKILS-NH2)]
(II) Ac-TRTKIDWNKIAS-NH2 [TRTKM11 (Ac-TRTKIDWNKIAS-NH2)]
(III) Ac-TRTKIAWNKILS-NH2 [TRTKM6 (Ac-TRTKIAWNKILS-NH2)]
(IV) Ac-TRTKIDWNAILS-NH2 [TRTKM9 (Ac-TRTKIDWNAILS-NH2)]
Hey, can you sort those binders up there by pKd, smallest first? Returns: the labels arranged in the requested order.
II, III, IV, I
(II: 5.00, III: 5.30, IV: 5.70, I: 6.70)
